Biological target: Histamine N-methyltransferase (Homo sapiens)
Assay: Primary Screen for Target Class Profiling of Small Molecule Inhibitors of Methyltransferases; further: on the % scale 0 is the no-effect control and ±100 the full control effect
Settings: purified enzyme, MTase-Glo SAH luminescence; measured here: HNMT inhibition; at 40 µM; stronger effect = lower value
Description: PI: Matthew D. Hall Ph.D. and Quinlin M. Hanson Ph.D. National Center for Advancing Translational Sciences (NCATS) National Institute of Health (NIH), Rockville, MD […] High-through put screening assays were developed at the National Center for Advancing Translational Science (NCATS) for the enzymes NNMT, PNMT, HNMT, GNMT, COMT, and GAMT. Enzymatic activity was measured as a function of SAM cofactor conversion using the MTase Glo kit (Promega) for all enzymes. […]
Out of some 25,000 compounds screened, about 970 (3.9%) were called active. Another 8% or so got no clear call; they are omitted. Many of the other results were omitted from the sample, so actives are more common in it than they were.
Quick list: activity change, negative = inhibition per entry.
Please respond with the number in % and leave the unit unwritten.

Challenge: Bench note: what activity change, negative = inhibition did CC(=O)Nc1ccc(-c2ccc3n(c2=O)C[C@H]2C[C@@H]3CN(C3CCN(C)CC3)C2)cc1 show?
Response given: -19.5

Challenge: Bench note: what activity change, negative = inhibition did C#C[C@]1(O)CC[C@H]2[C@@H]3CC[C@H]4Cc5nc6nc7ccccc7n6cc5C[C@]4(C)[C@H]3CC[C@@]21C show?
Response given: -17.3

Challenge: Bench note: what activity change, negative = inhibition did CO[C@H]1C[C@H](O[C@H]2CC[C@]3(CO)[C@H]4CC[C@]5(C)[C@@H](C6=CC(=O)OC6)CC[C@]5(O)[C@@H]4CC[C@]3(O)C2)O[C@H](C)[C@H]1O show?
Response given: -0.519

Challenge: Bench note: what activity change, negative = inhibition did COC(=O)c1ccccc1NC(=O)N1Cc2ccccc2-n2cccc2C1c1ccccc1Cl (stereo not drawn) show?
Response given: 5.36

Challenge: Bench note: what activity change, negative = inhibition did CN(C)c1ccc(C2c3cccn3-c3ccccc3CN2C(=O)NCc2ccccc2)cc1 (stereo not drawn) show?
Response given: -5.35

Challenge: Bench note: what activity change, negative = inhibition did NCC(O)c1ccc(O)cc1 (stereo not drawn) show?
Response given: -74.4

Challenge: Bench note: what activity change, negative = inhibition did CN(C)c1ccc(C2c3cccn3-c3ccccc3CN2C(=O)Nc2ccccc2)cc1 (stereo not drawn) show?
Response given: -8

Challenge: Bench note: what activity change, negative = inhibition did CCc1ccccc1NC(=O)N1Cc2ccccc2-n2cccc2C1c1ccccc1Cl (stereo not drawn) show?
Response given: -2.61

* * *

Quick list: activity change, negative = inhibition per entry.
Target: Glycine N-methyltransferase (Homo sapiens)
Assay: Primary Screen for Target Class Profiling of Small Molecule Inhibitors of Methyltransferases; further: on the % scale 0 is the no-effect control and ±100 the full control effect
Settings: purified enzyme, MTase-Glo SAH luminescence; measured here: GNMT inhibition; at 40 µM; stronger effect = lower value
The whole screen tested about 25,000 compounds, of which about 970 (3.9%) were called active. About 8% were inconclusive and are not listed. The full list was thinned out, with actives kept by preference.
Please respond with the number in % and leave the unit unwritten.

molecule	activity change, negative = inhibition, %
COC1CC(O[C@H]2CC[C@@]3(C)C(CCC4C3CC[C@]3(C)[C@@H](C5=CC(=O)OC5)CC[C@]43O)C2)OC(C)C1O (some centres undefined)	-6.87
C[C@H]1O[C@@H](O[C@H]2CC[C@]3(CO)C4CC[C@]5(C)[C@@H](C6=CC(=O)OC6)CC[C@]5(O)[C@@H]4CC[C@H]3C2)[C@H](O)[C@H](O)[C@@H]1O[C@@H]1O[C@H](CO)[C@@H](O)[C@H](O)[C@H]1O (some centres undefined)	-5.56
COCC1CN(Cc2ccsc2)CC12CCNCC2 (centres undefined)	-4.38

Challenge: Bench note: what activity change, negative = inhibition did CCC1c2cccn2-c2ccccc2CN1C(=O)Nc1cccc(C)c1C (centres undefined) show?
Response given: -0.789

Challenge: Bench note: what activity change, negative = inhibition did COc1cccc(CC(=O)N2CCCCCC2CN2CCCC2)c1 (centres undefined) show?
Response given: -1.59

Challenge: Bench note: what activity change, negative = inhibition did CC(=O)Nc1ccc(-c2ccc3n(c2=O)C[C@H]2C[C@@H]3CN(C3CCN(C)CC3)C2)cc1 show?
Response given: -3.31

Challenge: Bench note: what activity change, negative = inhibition did CO[C@H]1C[C@H](O[C@H]2CC[C@]3(CO)[C@H]4CC[C@]5(C)[C@@H](C6=CC(=O)OC6)CC[C@]5(O)[C@@H]4CC[C@]3(O)C2)O[C@H](C)[C@H]1O show?
Response given: -6.2

Challenge: Bench note: what activity change, negative = inhibition did COc1cccc([C@H]2CN(c3cc(C)nc(N)n3)[C@@H]3C4CCN(CC4)[C@H]23)c1 show?
Response given: -5.12

Challenge: Bench note: what activity change, negative = inhibition did CN(C)c1ccc(C2c3cccn3-c3ccccc3CN2C(=O)NCc2ccccc2)cc1 (centres undefined) show?
Response given: 0.802
